pIC50: −log10 of the molar value.
Listing of pIC50 toward TGF-beta receptor type-1 (Homo sapiens), each taken from a published source.

CHEMICAL STRING | pIC50
Cc1cccc(-c2nc(CN[C@@H]3c4ccccc4C[C@H]3O)[nH]c2-c2ccc3ncnn3c2)n1 | 6.00 to 7.00
NC(=O)c1sc2nc(O[C@H]3CNC(=O)C3)nc(-c3cccc(Cl)c3)c2c1N | 6.30 to 7.00
Cc1cc(-c2cc(Nc3cc(NCCN4CCCC4)ncn3)c3cccnc3n2)c(C)o1 | 5.00 to 6.00

// moving on: another record for pIC50
Record `CN1CCN(c2ccc(-c3cncc(-c4ccnc(-c5ccccc5F)c4)c3)cn2)CC1` . Reported pIC50: > 6.00

---

pIC50: −log10 of the molar value.
Listing of pIC50 toward TGF-beta receptor type-1 (Homo sapiens, UniProt P36897), each taken from a published source.

Observe how each entry below is paired with its result.
COMPOUND | ASSAY SYSTEM | MEASURED VALUE
CCC1C(=O)N(C)c2ccc(-c3cncc(-c4ccc(=O)n(C(C)C)c4)c3)cc21 (centres unmarked) | TGF-beta receptor type-1 (Homo sapiens, UniProt P36897) | < 5.00
Cc1cccc2c(Nc3ccnc(Nc4ccc(N5CCN(C)CC5)nc4)n3)cnnc12 | TGF-beta receptor type-1 (Homo sapiens, UniProt P36897) | > 8.00
Nc1nccc2c(-c3cc(-c4ccccc4F)nc4nccnc34)cccc12 | TGF-beta receptor type-1 (Homo sapiens, UniProt P36897) | > 6.00
COc1nnc(-c2cc(-c3ccccc3F)nc3ncccc23)c2ccncc12 | TGF-beta receptor type-1 (Homo sapiens, UniProt P36897) | > 6.00

Value sought: pIC50, system TGF-beta receptor type-1 (Homo sapiens, UniProt P36897), item `CNC(=O)c1cc(Nc2cc(-c3cc(Cl)ccc3F)nc3ncccc23)ccn1` . Result: > 7.00

---

Listing of IC50 toward TGF-beta receptor type-1 (Homo sapiens, UniProt P36897), each taken from a published source.

Observe how each entry below is paired with its result.
CHEMICAL STRING | IC50
CCOc1ccc(Cl)cc1-c1cc(Nc2ccnc(NC(C)=O)c2)c2cccnc2n1 | 100 to 1000 nM
CCOC(=O)NCC(=O)Nc1cc(Nc2cc(-c3cc(Cl)ccc3F)nc3ncccc23)ncn1 | < 100 nM
Fc1ccccc1-c1cc(Nc2ccncc2)c2nccnc2n1 | < 1000 nM
Cc1cccc2c(Nc3ccnc(Nc4ccc(CN5CCN(C)CC5)cc4)n3)cnnc12 | < 10 nM

Record `Fc1ccc(C(F)(F)F)cc1-c1cc(Nc2ccncc2)c2cccnc2n1` . Reported IC50: < 100 nM

---

Listing of IC50 toward TGF-beta receptor type-1 (Homo sapiens), each taken from a published source.

Observe how each entry below is paired with its result.
COMPOUND | IC50
NC(=O)c1sc2nc(OCC3CCCO3)nc(-c3cccc(Cl)c3)c2c1N (centres unmarked) | 100 to 500 nM
CC(C)c1[nH]c(=O)c(-c2cc(Cl)ccc2F)cc1Nc1ccnc(NC(=O)CN2CCCC2)c1 | ≤ 500 nM
CC(=O)Nc1cc(Nc2cc(-c3cc(Cl)ccc3F)c(=O)[nH]c2N(C)C)ccn1 | ≤ 500 nM

Value sought: IC50, system TGF-beta receptor type-1 (Homo sapiens), item `COCCOc1cnccc1Nc1cc(-c2cc(C(F)(F)F)ccc2F)nc2ncccc12` . Result: < 100 nM

Value sought: IC50, system TGF-beta receptor type-1 (Homo sapiens), item `Cc1cccc(-c2cc(Nc3ccncn3)c3cccnc3n2)n1` . Result: < 100 nM

---

Listing of IC50 toward TGF-beta receptor type-1 (Homo sapiens, UniProt P36897), each taken from a published source.

MOLECULE | IC50
Fc1ccc(Cl)cc1-c1cc(-n2ncc3cnccc32)c2cccnc2n1 | < 100 nM

Value sought: IC50, system TGF-beta receptor type-1 (Homo sapiens, UniProt P36897), item `Cc1cccc2c(Nc3ccnc(Nc4cccc(CN5CCOCC5)c4)n3)cnnc12` . Result: < 10 nM

Value sought: IC50, system TGF-beta receptor type-1 (Homo sapiens, UniProt P36897), item `COCCOc1nc(-c2cccc(Cl)c2)c2c(N)c(C(N)=O)sc2n1` . Result: 100 to 500 nM

Value sought: IC50, system TGF-beta receptor type-1 (Homo sapiens, UniProt P36897), item `CC(C)(O)c1cc(Nc2cc(Oc3cc(C4CC4)nn3[C@H]3C[C@H]4CC[C@@H](C3)O4)ccn2)ccn1` . Result: 35 nM

Value sought: IC50, system TGF-beta receptor type-1 (Homo sapiens, UniProt P36897), item NCC1CC(n2cc(C(Cl)=CCOCc3ccccc3)c3c(N)ncnc32)C1 (stereo not shown) . Result: 5500 nM

Value sought: IC50, system TGF-beta receptor type-1 (Homo sapiens, UniProt P36897), item Cc1cc(-c2cnc3cc(-c4ccc(C5COCCN5)cc4)ccn23)c2cc(F)cc(F)c2n1 (stereo not shown) . Result: 232 nM

Value sought: IC50, system TGF-beta receptor type-1 (Homo sapiens, UniProt P36897), item `NCCC(=O)Nc1cc(Nc2cc(-c3cc(Cl)ccc3F)nc3ncccc23)ncn1` . Result: < 100 nM

Value sought: IC50, system TGF-beta receptor type-1 (Homo sapiens, UniProt P36897), item `CC(C)N1C[C@@H]2C[C@]2(c2ccc(-c3cnc(N)c(C(=O)N[C@H]4CC[C@](C)(O)CC4)c3)cc2)C1` . Result: 3200 nM

Value sought: IC50, system TGF-beta receptor type-1 (Homo sapiens, UniProt P36897), item `Cc1cccc(-c2nc(CNC3CCCCCC3)[nH]c2-c2ccc3ncnn3c2)n1` . Result: 100 to 1000 nM

Value sought: IC50, system TGF-beta receptor type-1 (Homo sapiens, UniProt P36897), item `Cc1cccc2c(Nc3ccnc(Nc4ccc(N5CCCCC5)cc4)n3)cnnc12` . Result: < 10 nM

Value sought: IC50, system TGF-beta receptor type-1 (Homo sapiens, UniProt P36897), item `Cc1cccc(-c2nc(CNc3cccc4c3CNC4)[nH]c2-c2ccc3ncnn3c2)n1` . Result: 100 to 1000 nM

Value sought: IC50, system TGF-beta receptor type-1 (Homo sapiens, UniProt P36897), item `Fc1ccc(F)c(-c2cc(Nc3ccncc3)c3cccnc3n2)c1` . Result: < 100 nM

Value sought: IC50, system TGF-beta receptor type-1 (Homo sapiens, UniProt P36897), item `CC(C)(O)c1cc(Nc2cc(Oc3cc(C(F)(F)F)nn3[C@@H]3C[C@H]4CC[C@@H](C3)O4)ccn2)ccn1` . Result: 32 nM

---

Listing of IC50 toward TGF-beta receptor type-1 (Homo sapiens, UniProt P36897), each taken from a published source.

Observe how each entry below is paired with its result.
CHEMICAL STRING | IC50
Cc1cc(-c2cc(Nc3ccnc4ccncc34)c(C(C)C)[nH]c2=O)ccc1F | 2 to 5 µM
COc1ccc(CNc2ccc3c(Nc4ccncc4C(=O)NCCCN4CCOCC4)nc(-c4cc(Cl)ccc4F)nc3n2)cc1 | 0.99 µM
NS(=O)(=O)c1ccc(Nc2cc(Oc3cc(C4CC4)nn3C3CCOCC3)ccn2)cc1 | 0.037 µM
COC(=O)c1cnccc1Nc1cc(-c2cc(Cl)ccc2F)nc2ncccc12 | < 0.1 µM
Cc1cccc(-c2nc(CNC3CCOCC3)[nH]c2-c2ccc3ncnn3c2)n1 | 0.1 to 1 µM

Value sought: IC50, system TGF-beta receptor type-1 (Homo sapiens, UniProt P36897), item `Fc1ccc(Cl)cc1-c1cc(Nc2ccnc(Cl)c2)c2cccnc2n1` . Result: < 0.1 µM
